Target: human ether-à-go-go-related gene (hERG) potassium channel (human);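 note: peak tail current of the secondary pulse compared with the same well before compound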
Test: primary screen, population patch clamp on CHO cells stably expressing hERG; higher = less effect of the substance
Out of some 310,000 compounds screened, about 14,000 (4.5%) showed an effect of 50% or more. Effects have a minus sign here. What follows is part of a selection rich in strong results, with near analogues and random picks from the rest.
Readout Label: hERG current change (%, negative = inhibition) at 10uM (%)
Your answer should be a plain number; it is taken to be in %.

Need hERG current change (%, negative = inhibition) at 10uM, item COc1ccc(OC)c(NC(=O)CN2CCN(C(=O)c3ccco3)CC2)c1 -23.7

Need hERG current change (%, negative = inhibition) at 10uM, item CCOc1ccc(OCC)c(NC(=O)CN2CCN(C(=O)c3ccco3)CC2)c1 -59

Need hERG current change (%, negative = inhibition) at 10uM, item Cc1cccn2c(=O)c3cc(C(=O)N4CCN(Cc5ccccc5)CC4)sc3nc12 -79.7

Need hERG current change (%, negative = inhibition) at 10uM, item Cc1ccc(NC(=O)Cn2nnc3ccccc32)cc1 12.1

Need hERG current change (%, negative = inhibition) at 10uM, item COc1ccc(OC)c(CN2CCN(C(=O)c3ccc(NS(=O)(=O)c4cccc([N+](=O)[O-])c4)cc3)CC2)c1 -70.6

Need hERG current change (%, negative = inhibition) at 10uM, item O=C(NCCC1=CCCCC1)c1c(O)nc2ccccn2c1=O 0.215

Need hERG current change (%, negative = inhibition) at 10uM, item CCS(=O)(=O)c1ccc(O)c(NC(=O)COc2ccc(Br)cc2)c1 -3.73

Need hERG current change (%, negative = inhibition) at 10uM, item COc1ccccc1N1CCN(C(=O)c2cc3c(=O)n4ccccc4nc3s2)CC1.Cl -53.2

Need hERG current change (%, negative = inhibition) at 10uM, item O=C(Nc1cccc(S(=O)(=O)Nc2ccccc2Cl)c1)c1ccc(Cl)nc1 -8.9

Need hERG current change (%, negative = inhibition) at 10uM, item CCCCCNCC(=O)Nc1cc(C(F)(F)F)ccc1OCCOC -34.2

Need hERG current change (%, negative = inhibition) at 10uM, item COc1cc(/C=C2\SC(=O)NC2=O)ccc1Oc1ccc([N+](=O)[O-])cc1[N+](=O)[O-] 20.2

Need hERG current change (%, negative = inhibition) at 10uM, item COC(=O)CNc1nc(Cl)nc(Nc2ccc(C)cc2)n1 18.3

Need hERG current change (%, negative = inhibition) at 10uM, item C=CC(=O)N=c1sc2ccccc2n1-c1ccccc1 -6.08

Need hERG current change (%, negative = inhibition) at 10uM, item COc1ccc(OC)c(CN2CCN(C(=O)c3cccc(S(=O)(=O)Nc4ccc(C)cc4)c3)CC2)c1 -34.6

Need hERG current change (%, negative = inhibition) at 10uM, item COC(=O)c1cc(C(=O)N2CCN(c3cccc(C)c3C)CC2)cc([N+](=O)[O-])c1 -39.6

Need hERG current change (%, negative = inhibition) at 10uM, item CSc1nc2c(c(=O)[nH]1)C(c1ccncc1)C(C(=O)OC(C)C)=C(C)N2 (stereo not drawn) -0.441

Need hERG current change (%, negative = inhibition) at 10uM, item O=C(c1ccccc1)N1CCN(Cc2ccc3c(c2)OCO3)CC1 11.5

Need hERG current change (%, negative = inhibition) at 10uM, item COc1ccc(OCC(O)CN2CCN(c3ccccc3)CC2)cc1.Cl (stereo not drawn) -39.2

Need hERG current change (%, negative = inhibition) at 10uM, item CNC(=O)OCc1cccc(COC(=O)NC)n1.Cl 27.2

Need hERG current change (%, negative = inhibition) at 10uM, item CNCCCC1c2ccccc2C=Cc2ccccc21.Cl 13.2

Need hERG current change (%, negative = inhibition) at 10uM, item COc1ccccc1NC(=O)CNc1ccc(F)c(Cl)c1 -11.7

Need hERG current change (%, negative = inhibition) at 10uM, item CC(=O)c1ccc(N2CCN(CC(O)c3ccccc3)CC2)cc1 (stereo not drawn) -11.6

Need hERG current change (%, negative = inhibition) at 10uM, item CC(=O)c1ccc(N2CCN(CC(O)COCc3ccco3)CC2)cc1 (stereo not drawn) -56.3

Need hERG current change (%, negative = inhibition) at 10uM, item CCOc1ccc(OCC)c(NC(=O)CN2CCN(c3ccc(C)cc3C)CC2)c1.Cl -0.937

Need hERG current change (%, negative = inhibition) at 10uM, item COc1ccccc1N1CCN(C(=O)c2cc3c(=O)n4cccc(C)c4nc3s2)CC1 -11.2

Need hERG current change (%, negative = inhibition) at 10uM, item O=CNC1CCCc2c1[nH]c1ccc(Cl)cc21 (stereo not drawn) -9.15

Need hERG current change (%, negative = inhibition) at 10uM, item COc1cccc(OC)c1C(=O)N1CCN(Cc2ccc3c(c2)OCO3)CC1 -12

----------
Could you please report measured hERG current change (%, negative = inhibition) at 10uM for the items listed next?
Molecular target: human ether-à-go-go-related gene (hERG) potassium channel (human, UniProt Q12809);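 note: peak tail current of the secondary pulse compared with the same well before compound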
Sequence (Q12809 whole entry, looked up): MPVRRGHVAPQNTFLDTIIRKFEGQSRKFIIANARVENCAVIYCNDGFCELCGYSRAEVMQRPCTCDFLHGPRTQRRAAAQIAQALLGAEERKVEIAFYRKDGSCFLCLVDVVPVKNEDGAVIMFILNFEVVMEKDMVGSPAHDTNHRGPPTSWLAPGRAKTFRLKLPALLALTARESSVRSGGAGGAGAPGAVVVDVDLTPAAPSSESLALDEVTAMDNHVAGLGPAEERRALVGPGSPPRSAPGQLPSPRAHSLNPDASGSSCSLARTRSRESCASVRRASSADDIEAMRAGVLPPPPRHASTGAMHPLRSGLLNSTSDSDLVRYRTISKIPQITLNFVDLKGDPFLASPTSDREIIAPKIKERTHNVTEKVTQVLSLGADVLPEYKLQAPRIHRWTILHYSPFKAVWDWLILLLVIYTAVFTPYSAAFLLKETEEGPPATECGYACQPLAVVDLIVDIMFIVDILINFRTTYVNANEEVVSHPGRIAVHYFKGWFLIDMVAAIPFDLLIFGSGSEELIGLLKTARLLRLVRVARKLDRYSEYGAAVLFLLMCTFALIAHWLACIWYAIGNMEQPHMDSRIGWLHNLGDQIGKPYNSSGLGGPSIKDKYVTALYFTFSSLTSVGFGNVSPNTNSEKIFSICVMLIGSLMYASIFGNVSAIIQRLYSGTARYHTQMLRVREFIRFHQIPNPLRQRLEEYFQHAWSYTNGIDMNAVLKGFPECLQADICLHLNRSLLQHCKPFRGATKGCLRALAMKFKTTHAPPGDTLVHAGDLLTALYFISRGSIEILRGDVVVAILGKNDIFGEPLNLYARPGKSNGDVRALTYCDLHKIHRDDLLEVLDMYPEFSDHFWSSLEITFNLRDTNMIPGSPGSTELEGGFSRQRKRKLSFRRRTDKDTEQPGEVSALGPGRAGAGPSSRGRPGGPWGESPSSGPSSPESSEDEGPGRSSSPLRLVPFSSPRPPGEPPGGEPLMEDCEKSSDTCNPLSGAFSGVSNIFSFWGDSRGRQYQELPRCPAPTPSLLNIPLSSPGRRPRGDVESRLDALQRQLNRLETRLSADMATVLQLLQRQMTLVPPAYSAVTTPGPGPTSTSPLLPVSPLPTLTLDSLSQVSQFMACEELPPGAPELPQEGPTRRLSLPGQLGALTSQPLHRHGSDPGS
Assay: primary screen, population patch clamp on CHO cells stably expressing hERG; higher = less effect of the substance
About 14,000 (4.5%) of roughly 310,000 compounds showed an effect of 50% or more. The effect is printed as a negative number. The sample holds strong results, similar compounds and a random draw of the others, so the mix is not that of the screen.
Your answer should be a plain number; it is taken to be in %.

Need hERG current change (%, negative = inhibition) at 10uM, item O=C(NCCc1ccc(Cl)cc1)C1CCN(c2cnccn2)CC1 -35.3

Need hERG current change (%, negative = inhibition) at 10uM, item Cc1ccc(NC(=O)[C@@H](C)NC(=O)[C@@H]2Cc3ccccc3CN2)cc1 -14.9

Need hERG current change (%, negative = inhibition) at 10uM, item O=C(CCC1CCCCC1)Nc1ccccc1O 3.23

Need hERG current change (%, negative = inhibition) at 10uM, item O=C(NCc1ccccc1Cl)C1CCN(c2cnccn2)CC1 -4.12

Need hERG current change (%, negative = inhibition) at 10uM, item CCC[N+](CC#Cc1ccccc1)(CCC)CC(=O)OCC -1.25

Need hERG current change (%, negative = inhibition) at 10uM, item Cc1cccc(NC(=O)CN2CCN(C(=O)c3cccc(-n4cnnn4)c3)CC2)c1C -41.5

Need hERG current change (%, negative = inhibition) at 10uM, item Cc1ccc(NC(=O)[C@H](NC(=O)[C@@H]2Cc3ccccc3CN2)c2ccccc2)c(C)c1 -60.7

Need hERG current change (%, negative = inhibition) at 10uM, item CC(=O)c1ccc2c(c1)C1C=CCC1C(c1ccncc1)N2 (centres unmarked) -21

Need hERG current change (%, negative = inhibition) at 10uM, item CCN1CCN(Cc2ccc(NC(=O)c3cc(NC(=O)C(=O)c4c[nH]c5ccccc45)cc(OC)c3)cc2C(F)(F)F)CC1 8.1

Need hERG current change (%, negative = inhibition) at 10uM, item CC(C)c1ccc(NC(=O)[C@@H](C)NC(=O)[C@@H]2Cc3ccccc3CN2)cc1 -29.2

Need hERG current change (%, negative = inhibition) at 10uM, item CC[N+](CC)(CC#Cc1ccccc1)CC(=O)c1ccc(Cl)cc1 -60.3

Need hERG current change (%, negative = inhibition) at 10uM, item Cc1ccc(-c2ccc(CO)o2)cc1N 9.48

Need hERG current change (%, negative = inhibition) at 10uM, item Cc1ccc(NC(=O)[C@H](Cc2ccccc2)NC(=O)[C@@H]2Cc3ccccc3CN2)c(C)c1 -5.23

Need hERG current change (%, negative = inhibition) at 10uM, item CC(C)c1ccc(NC(=O)[C@H](NC(=O)[C@@H]2Cc3ccccc3CN2)c2ccccc2)cc1 -6.39

Need hERG current change (%, negative = inhibition) at 10uM, item Cc1ccc(NC(=O)[C@H](Cc2c[nH]c3ccccc23)NC(=O)[C@@H]2Cc3ccccc3CN2)c(C)c1 -30.1

Need hERG current change (%, negative = inhibition) at 10uM, item CCc1ccccc1NC(=O)COc1cccc(-n2cnnn2)c1 -8.5

Need hERG current change (%, negative = inhibition) at 10uM, item COCc1ccc(C(=O)N2CCCC(Nc3ccc(C(C)C)cc3)C2)o1 (centres unmarked) -0.274

Need hERG current change (%, negative = inhibition) at 10uM, item OCC1(CO)COC(CCc2ccccc2)=N1 16.1

Need hERG current change (%, negative = inhibition) at 10uM, item C[N+](C)(CC#Cc1ccccc1)CC(=O)c1ccccc1.[Br-] -13.5

Need hERG current change (%, negative = inhibition) at 10uM, item COc1ccc(NC(=O)[C@H](NC(=O)[C@@H]2Cc3ccccc3CN2)c2ccccc2)cc1 -50.3

Need hERG current change (%, negative = inhibition) at 10uM, item COc1cc(/C=N/NC(=O)CNC(=O)c2ccc3c(c2)OCCO3)ccc1O 1.98

Need hERG current change (%, negative = inhibition) at 10uM, item COc1cccc(NC(=O)[C@H](CC(C)C)NC(=O)[C@@H]2Cc3ccccc3CN2)c1 -16

Need hERG current change (%, negative = inhibition) at 10uM, item CCC[N+](CC#Cc1ccccc1)(CCC)CC(=O)c1ccc(Cl)cc1 -67.4

Need hERG current change (%, negative = inhibition) at 10uM, item CC(=O)N1CCc2cc(S(=O)(=O)NC(CC(C)C)C(=O)N3CCn4c3nc3ccccc34)ccc21 (centres unmarked) -60

Need hERG current change (%, negative = inhibition) at 10uM, item Cc1ccccc1OCC(=O)NNC(=O)CN1C(=O)c2ccccc2C1=O -9.07

Need hERG current change (%, negative = inhibition) at 10uM, item CCc1nn(CCCC(=O)NCc2cc(Br)ccc2OC)c(=O)c2cc3occc3n12 -2.73

Need hERG current change (%, negative = inhibition) at 10uM, item COc1cccc(NC(=O)[C@H](NC(=O)[C@@H]2Cc3ccccc3CN2)c2ccccc2)c1 -76.4

Need hERG current change (%, negative = inhibition) at 10uM, item Cc1cc(C)c(C(=O)CN2C(=O)NC3(CCC(C)CC3)C2=O)cc1C (centres unmarked) 11.1

Need hERG current change (%, negative = inhibition) at 10uM, item Cc1cccc(Cl)c1NC(=O)N1CCCN(c2nc3ccc(Cl)cc3s2)CC1 -20.6

Need hERG current change (%, negative = inhibition) at 10uM, item COc1ccccc1C1C(C(=O)c2sc(C)nc2C)=C(O)C(=O)N1CCN1CCOCC1 (centres unmarked) 4.26

Need hERG current change (%, negative = inhibition) at 10uM, item Cc1sc2nc(COC(=O)c3cccc(OC(F)F)c3)[nH]c(=O)c2c1C 0.0335

Need hERG current change (%, negative = inhibition) at 10uM, item CCC[N+](CC#Cc1ccccc1)(CCC)CC(=O)OC 9.58
